# credit: ChEMBL document CHEMBL4196183

System: Urotensin-2 receptor (Rattus norvegicus)
Experiment Summary: Antagonist activity at UT receptor in Sprague-Dawley rat thoracic aortic ring assessed as reduction in urotensin-2-induced contraction by measuring Emax for human urotensin-2-induced contraction at 1 uM pre-incubated for 30 mins before urotensin-2 stimulation relative to KCl-induced contraction (reference value: 101 +/- 4%)
Assay type: functional
Recorded Endpoint: Emax (%)
# unit: % | format: bare number

Observe how each entry below is paired with its result.
[[record]]
query_smiles = "CC(C)[C@H](NC(=O)[C@@H]1CSSC[C@H](NC(=O)[C@H](C)N)C(=O)N[C@@H](Cc2ccc(-c3ccccc3)cc2)C(=O)N[C@@H](Cc2c[nH]c3ccccc23)C(=O)N[C@@H](CCCCN)C(=O)N[C@@H](Cc2ccc(O)cc2)C(=O)N1)C(=O)O"
unit_info = "%"
result_number = 23

[[record]]
query_smiles = "CC(C)[C@H](NC(=O)[C@@H]1CSSC[C@H](NC(=O)[C@@H](C)N)C(=O)N[C@@H](Cc2ccc(-c3ccccc3)cc2)C(=O)N[C@@H](Cc2c[nH]c3ccccc23)C(=O)N[C@@H](CCCCN)C(=O)N[C@@H](Cc2ccc(O)cc2)C(=O)N1)C(=O)O"
unit_info = "%"
result_number = 95

[[record]]
query_smiles = "CC(C)[C@H](NC(=O)[C@@H]1CSSC[C@H](NC(=O)[C@H](C)N)C(=O)N[C@@H](Cc2ccc(C#Cc3ccccc3)cc2)C(=O)N[C@@H](Cc2c[nH]c3ccccc23)C(=O)N[C@@H](CCCCN)C(=O)N[C@@H](Cc2ccc(O)cc2)C(=O)N1)C(=O)O"
unit_info = "%"
result_number = 15


Incoming: Requested read-out: Emax. Entry: "CC(C)[C@H](NC(=O)[C@@H]1CSSC[C@H](NC(=O)[C@@H](C)N)C(=O)N[C@@H](Cc2ccc(I)cc2)C(=O)N[C@@H](Cc2c[nH]c3ccccc23)C(=O)N[C@@H](CCCCN)C(=O)N[C@@H](Cc2ccc(O)cc2)C(=O)N1)C(=O)O"
Outgoing: 52

Incoming: Requested read-out: Emax. Entry: "CC(C)[C@H](NC(=O)[C@@H]1CSSC[C@H](NC(=O)[C@@H](C)N)C(=O)N[C@@H](Cc2ccc(C#Cc3ccccc3)cc2)C(=O)N[C@@H](Cc2c[nH]c3ccccc23)C(=O)N[C@@H](CCCCN)C(=O)N[C@@H](Cc2ccc(O)cc2)C(=O)N1)C(=O)O"
Outgoing: 100

Incoming: Requested read-out: Emax. Entry: "CC(C)[C@H](NC(=O)[C@@H]1CSSC[C@H](NC(=O)[C@H](N)CC(=O)O)C(=O)N[C@@H](Cc2ccc(I)cc2)C(=O)N[C@@H](Cc2c[nH]c3ccccc23)C(=O)N[C@@H](CCCCN)C(=O)N[C@@H](Cc2ccc(O)cc2)C(=O)N1)C(=O)O"
Outgoing: 95

---

Measured fold change (FC), listed per entry.
System: Urotensin-2 receptor (Homo sapiens) (UniProt Q9UKP6)
Sequence (whole entry): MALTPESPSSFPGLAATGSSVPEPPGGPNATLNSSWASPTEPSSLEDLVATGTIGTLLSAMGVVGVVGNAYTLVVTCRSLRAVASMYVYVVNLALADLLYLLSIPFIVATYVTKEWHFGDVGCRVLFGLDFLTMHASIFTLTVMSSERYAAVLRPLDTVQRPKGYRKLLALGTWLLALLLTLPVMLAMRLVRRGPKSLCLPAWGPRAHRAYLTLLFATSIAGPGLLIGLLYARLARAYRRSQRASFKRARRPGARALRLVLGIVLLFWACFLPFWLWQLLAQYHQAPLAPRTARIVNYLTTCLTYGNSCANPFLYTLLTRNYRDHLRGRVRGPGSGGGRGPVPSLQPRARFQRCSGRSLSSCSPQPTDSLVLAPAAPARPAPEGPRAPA
Experiment Summary: Bias factor, ratio of deltalog(Tau/KA) for agonist activity at human UT receptor expressed in HEK293 cells co-expressing beta-arrestin1-polycistronic BRET biosensor assessed as induction of beta-arrestin1 recruitment by luminescence detection based BRET assay to deltalog(Tau/KA) for agonist activity at human UT receptor expressed in HEK293 cells co-expressing G12-polycistronic BRET biosensor assessed as induction of G12 activation by luminescence detection based BRET assay
Assay type: functional, cell-based

[[record]]
query_smiles = "CC(C)[C@H](NC(=O)[C@@H]1CSSC[C@H](NC(=O)[C@@H](C)N)C(=O)N[C@@H](Cc2ccc(I)cc2)C(=O)N[C@@H](Cc2c[nH]c3ccccc23)C(=O)N[C@@H](CCCCN)C(=O)N[C@@H](Cc2ccc(O)cc2)C(=O)N1)C(=O)O"
system = "Urotensin-2 receptor (Homo sapiens) (UniProt Q9UKP6)"
recorded_endpoint = "fold change (FC)"
result = 1.1

[[record]]
query_smiles = "CC(C)[C@H](NC(=O)[C@@H]1CSSC[C@H](NC(=O)[C@H](C)N)C(=O)N[C@@H](Cc2ccccc2)C(=O)N[C@@H](Cc2c[nH]c3ccccc23)C(=O)N[C@@H](CCCCN)C(=O)N[C@@H](Cc2ccc(O)cc2)C(=O)N1)C(=O)O"
system = "Urotensin-2 receptor (Homo sapiens) (UniProt Q9UKP6)"
recorded_endpoint = "fold change (FC)"
result = 1

[[record]]
query_smiles = "CC(C)[C@H](NC(=O)[C@@H]1CSSC[C@H](NC(=O)[C@@H](N)CC(=O)O)C(=O)N[C@@H](Cc2ccc(I)cc2)C(=O)N[C@@H](Cc2c[nH]c3ccccc23)C(=O)N[C@@H](CCCCN)C(=O)N[C@@H](Cc2ccc(O)cc2)C(=O)N1)C(=O)O"
system = "Urotensin-2 receptor (Homo sapiens) (UniProt Q9UKP6)"
recorded_endpoint = "fold change (FC)"
result = 0.8

[[record]]
query_smiles = "CC(C)[C@H](NC(=O)[C@@H]1CSSC[C@H](NC(=O)[C@H](C)N)C(=O)N[C@@H](Cc2ccc(I)cc2)C(=O)N[C@@H](Cc2c[nH]c3ccccc23)C(=O)N[C@@H](CCCCN)C(=O)N[C@@H](Cc2ccc(O)cc2)C(=O)N1)C(=O)O"
system = "Urotensin-2 receptor (Homo sapiens) (UniProt Q9UKP6)"
recorded_endpoint = "fold change (FC)"
result = 2.8

[[record]]
query_smiles = "CC(C)[C@H](NC(=O)[C@@H]1CSSC[C@H](NC(=O)[C@@H](C)N)C(=O)N[C@@H](Cc2ccc(C#Cc3ccccc3)cc2)C(=O)N[C@@H](Cc2c[nH]c3ccccc23)C(=O)N[C@@H](CCCCN)C(=O)N[C@@H](Cc2ccc(O)cc2)C(=O)N1)C(=O)O"
system = "Urotensin-2 receptor (Homo sapiens) (UniProt Q9UKP6)"
recorded_endpoint = "fold change (FC)"
result = 0.2

[[record]]
query_smiles = "CC(C)[C@H](NC(=O)[C@@H]1CSSC[C@H](NC(=O)[C@H](C)N)C(=O)N[C@@H](Cc2ccc(-c3ccccc3)cc2)C(=O)N[C@@H](Cc2c[nH]c3ccccc23)C(=O)N[C@@H](CCCCN)C(=O)N[C@@H](Cc2ccc(O)cc2)C(=O)N1)C(=O)O"
system = "Urotensin-2 receptor (Homo sapiens) (UniProt Q9UKP6)"
recorded_endpoint = "fold change (FC)"
result = 0.3

[[record]]
query_smiles = "CC(C)[C@H](NC(=O)[C@@H]1CSSC[C@H](NC(=O)[C@H](C)N)C(=O)N[C@@H](Cc2ccc(C#Cc3ccccc3)cc2)C(=O)N[C@@H](Cc2c[nH]c3ccccc23)C(=O)N[C@@H](CCCCN)C(=O)N[C@@H](Cc2ccc(O)cc2)C(=O)N1)C(=O)O"
system = "Urotensin-2 receptor (Homo sapiens) (UniProt Q9UKP6)"
recorded_endpoint = "fold change (FC)"
result = 0.6

[[record]]
query_smiles = "CC(C)[C@H](NC(=O)[C@@H]1CSSC[C@H](NC(=O)[C@@H](C)N)C(=O)N[C@@H](Cc2ccc(-c3ccccc3)cc2)C(=O)N[C@@H](Cc2c[nH]c3ccccc23)C(=O)N[C@@H](CCCCN)C(=O)N[C@@H](Cc2ccc(O)cc2)C(=O)N1)C(=O)O"
system = "Urotensin-2 receptor (Homo sapiens) (UniProt Q9UKP6)"
recorded_endpoint = "fold change (FC)"
result = 0.3


Incoming: Requested read-out: fold change (FC). Entry: "CC(C)[C@H](NC(=O)[C@@H]1CSSC[C@H](NC(=O)[C@H](N)CC(=O)O)C(=O)N[C@@H](Cc2ccc(I)cc2)C(=O)N[C@@H](Cc2c[nH]c3ccccc23)C(=O)N[C@@H](CCCCN)C(=O)N[C@@H](Cc2ccc(O)cc2)C(=O)N1)C(=O)O"
Outgoing: 1.2

---

System: Urotensin-2 receptor (Homo sapiens) (UniProt Q9UKP6)
Experiment Summary: Selectivity index, change in deltalog(Tau/KA) for agonist activity at human UT receptor expressed in HEK293 cells co-expressing beta-arrestin1-polycistronic BRET biosensor assessed as induction of beta-arrestin1 recruitment by luminescence detection based BRET assay to deltalog(Tau/KA) for agonist activity at human UT receptor expressed in HEK293 cells co-expressing G12-polycistronic BRET biosensor assessed as induction of G12 activation by luminescence detection based BRET assay to
Format: functional, cell-based
Recorded Endpoint: deltadeltalog(Tau/KA) (beta-arrestin1 selectivity index)

[[record]]
query_smiles = "CC(C)[C@H](NC(=O)[C@@H]1CSSC[C@H](NC(=O)[C@@H](C)N)C(=O)N[C@@H](Cc2ccc(C#Cc3ccccc3)cc2)C(=O)N[C@@H](Cc2c[nH]c3ccccc23)C(=O)N[C@@H](CCCCN)C(=O)N[C@@H](Cc2ccc(O)cc2)C(=O)N1)C(=O)O"
system = "Urotensin-2 receptor (Homo sapiens) (UniProt Q9UKP6)"
result = -0.75


Incoming: Requested read-out: deltadeltalog(Tau/KA) (beta-arrestin1 selectivity index). Entry: "CC(C)[C@H](NC(=O)[C@@H]1CSSC[C@H](NC(=O)[C@H](N)CC(=O)O)C(=O)N[C@@H](Cc2ccc(I)cc2)C(=O)N[C@@H](Cc2c[nH]c3ccccc23)C(=O)N[C@@H](CCCCN)C(=O)N[C@@H](Cc2ccc(O)cc2)C(=O)N1)C(=O)O"
Outgoing: 0.09
